Biological target: TLR9 (Homo sapiens, UniProt Q9NR96)
Construct: expressed in transfected cells; host or cells: HEK293
Sequence (Q9NR96 26-1032): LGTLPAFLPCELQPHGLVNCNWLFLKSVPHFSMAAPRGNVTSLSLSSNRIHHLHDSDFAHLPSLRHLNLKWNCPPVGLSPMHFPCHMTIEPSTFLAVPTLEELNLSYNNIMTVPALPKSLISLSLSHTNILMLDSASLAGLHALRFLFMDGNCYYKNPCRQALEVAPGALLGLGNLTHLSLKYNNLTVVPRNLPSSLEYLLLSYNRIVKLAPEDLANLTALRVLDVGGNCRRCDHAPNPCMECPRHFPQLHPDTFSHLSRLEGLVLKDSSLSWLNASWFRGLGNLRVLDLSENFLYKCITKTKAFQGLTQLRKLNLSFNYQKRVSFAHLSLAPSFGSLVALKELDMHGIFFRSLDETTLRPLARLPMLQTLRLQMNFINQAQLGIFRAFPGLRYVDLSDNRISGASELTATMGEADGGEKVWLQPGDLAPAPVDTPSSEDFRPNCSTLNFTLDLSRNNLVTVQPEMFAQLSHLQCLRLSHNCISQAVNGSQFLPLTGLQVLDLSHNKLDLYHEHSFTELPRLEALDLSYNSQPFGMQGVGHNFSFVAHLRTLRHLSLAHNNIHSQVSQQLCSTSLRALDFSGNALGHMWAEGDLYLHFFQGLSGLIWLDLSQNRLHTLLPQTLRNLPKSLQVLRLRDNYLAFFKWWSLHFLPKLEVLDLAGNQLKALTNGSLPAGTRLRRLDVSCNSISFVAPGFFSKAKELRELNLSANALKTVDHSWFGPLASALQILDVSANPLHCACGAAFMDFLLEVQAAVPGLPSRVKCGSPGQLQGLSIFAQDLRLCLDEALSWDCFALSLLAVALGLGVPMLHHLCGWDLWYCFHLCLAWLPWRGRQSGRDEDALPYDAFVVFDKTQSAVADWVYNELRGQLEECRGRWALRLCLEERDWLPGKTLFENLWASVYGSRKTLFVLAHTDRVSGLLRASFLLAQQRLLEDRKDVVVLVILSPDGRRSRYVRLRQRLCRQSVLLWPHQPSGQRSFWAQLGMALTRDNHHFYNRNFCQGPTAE
Assay: TLR9 screening of (+)-morphinan library, SEAP reporter in HEK293 cells expressing TLR9
Format: cell-based
Conditions: HEK293, read-out: % Inhibition (mean), 100 nM; activator ODN2006
Record met whenever inhibition at 0.1 µM is at 10% or higher; record not met when lower.

INSERT INTO measurements (molecule, group) VALUES
  ('C=CCN1CC[C@@]23CC(=O)CCC2C1Cc1ccc(OC)c(O)c13 (some centres unmarked) [Compound I-7]', 'met'),
  ('COc1ccc2c(c1O)[C@@]13CCN(C)[C@@H](C2)[C@H]1CC(OC)C(O)C3 (some centres unmarked) [Compound I-10]', 'not met'),
  ('COc1ccc2c3c1O[C@@H]1C(=O)CC[C@]4(O)[C@H](C2)N(C)CC[C@@]314 [II-39]', 'met'),
  ('COc1ccc2c3c1O[C@@H]1C(OC)(OC)CCC4[C@H](C2)N(CC2CC2)CC[C@]341 (some centres unmarked) [II-99]', 'not met'),
  ('C=CCN1CC[C@@]23c4c5c(Br)cc(OC)c4O[C@@H]2C(=O)CCC3C1C5 (some centres unmarked) [II-16]', 'not met');

Q) Determine whether measured inhibition at 0.1 µM meets or exceeds 10% for C=C1CC[C@]2(O)[C@@H]3Cc4ccc(O)c5c4[C@]2(CCN3CC2CC2)[C@@H]1O5 [II-77]
A) met

Q) Let us now turn to COc1cc(Br)c2c3c1O[C@@H]1C(=O)CCC4C(C2)NCC[C@]341 (some centres unmarked) [II-1]
A) met

* * *

Reported inhibition at 0.1 µM by item:
Molecular target: TLR9 (Homo sapiens)
Construct: expressed in transfected cells; host or cells: HEK293
Assay: TLR9 screening of (+)-morphinan library, SEAP reporter in HEK293 cells expressing TLR9
Type: cell-based
Settings: HEK293, read-out: % Inhibition (mean), 100 nM; activator ODN2006
Numbers only; they are read as %.

Here's what some known entries look like.
INSERT INTO assay_data (molecule, measured_result) VALUES
  ('COc1ccc2c3c1O[C@@H]1C4(CCC5[C@H](C2)N(CC2CC2)CC[C@]351)OCCO4 (stereo partly shown)', 14),
  ('CO[C@]12CCC(=O)[C@H]3Oc4c(O)ccc5c4[C@]31CCN(CC1CC1)[C@H]2C5', 25),
  ('CCCNC1CCC2C3Cc4ccc(OC)c5c4[C@]2(CCN3C)C1O5 (stereo partly shown)', 92);

Then this molecule:
Q) Give the measured inhibition at 0.1 µM of C=C(C)c1cc(OC)c(O)c2c1CC1C3CCC(=O)C[C@@]23CCN1CC1CC1 (stereo partly shown) .
A) 20

* * *

Reported OD 650 nm (mean ± sd) by item:
Target: TLR9 (Homo sapiens)
Construct: expressed in transfected cells; host or cells: HEK293
Assay: TLR9 screening of (+)-morphinan library, SEAP reporter in HEK293 cells expressing TLR9
Format: cell-based
Conditions: 100 nM; activator ODN2006; control (no activator) 0.14, activator 1.42 OD
Numbers only; they are read as OD.

Here's what some known entries look like.
INSERT INTO measurements (compound, study_target, measured_result) VALUES
  ('COc1ccc2c(c1O)[C@@]13CCN(CC4CC4)C(C2)C1CCC(=O)C3 (some centres unmarked)', 'TLR9 (Homo sapiens)', 1.29),
  ('COC1=CC=C2[C@@H]3Cc4ccc(OC)c5c4[C@]2(CCN3)[C@@H]1O5', 'TLR9 (Homo sapiens)', 0.86),
  ('COc1ccc2c3c1O[C@@H]1C(=O)CC[C@]4(O)[C@H](C2)N(C(C)=O)CC[C@@]314', 'TLR9 (Homo sapiens)', 1.44);

Q) Give the measured OD 650 nm (mean ± sd) of COc1ccc2c3c1O[C@@H]1C(=O)CC[C@@H]4[C@H](C2)N(C(=O)C2CC2)CC[C@@]314 [II-30] .
A) 1.34

Q) Let us now turn to C=CCN1CC[C@@]23CC(=O)C(OC)C[C@@H]2[C@@H]1Cc1ccc(OC)c(O)c13 (some centres unmarked)
A) 1.50

Q) Let us now turn to COc1ccc2c3c1O[C@@H]1C(OC(C)=O)=CC[C@]4(O)[C@H](C2)N(C(C)=O)CC[C@@]314
A) 1.40

Q) Let us now turn to COc1ccc2c(c1)CCN(CC1CCC1)[C@@H]2Cc1ccc(OC)c(O)c1
A) 1.04

Q) Let us now turn to COc1ccc2c3c1O[C@@H]1C(O)CC[C@@H]4[C@H](C2)N(CC2CC2)CC[C@@]314 (some centres unmarked)
A) 1.13
